Test system: HepG2 (hepatocellular carcinoma) cell line
Conditions: human
Quantity Kind: SI HepG2/TM91C235

What value of SI HepG2/TM91C235 has been recorded for this entry: CC(=O)O[C@H]1C[C@H]2[C@@H]([C@H](OC(C)=O)C[C@@H]3C[C@H](NS(C)(=O)=O)CC[C@@]32C)[C@@H]2CC[C@H]([C@H](C)CCCN(C)CCCNc3ccnc4cc(Cl)ccc34)[C@@]12C [Compound 43] 93/89/139

I would be grateful if you could share the reported SI HepG2/TM91C235 for CC(=O)O[C@H]1C[C@H]2[C@@H]([C@H](OC(C)=O)C[C@@H]3C[C@H](O)CC[C@@]32C)[C@@H]2CC[C@H]([C@H](C)CCCNCCNc3ccnc4cc(Cl)ccc34)[C@@]12C [Compound 16] . 415/938/407

Which SI HepG2/TM91C235 is listed for CC(=O)O[C@H]1C[C@H]2[C@@H]([C@H](OC(C)=O)C[C@@H]3C[C@H](N)CC[C@@]32C)[C@@H]2CC[C@H]([C@H](C)CCCN(C)CCNc3ccnc4cc(Cl)ccc34)[C@@]12C [Compound 54] ? 4993/3995/2327

Reported SI HepG2/TM91C235, compound CC(=O)O[C@H]1C[C@H]2[C@@H]([C@H](OC(C)=O)C[C@@H]3C[C@H](NS(C)(=O)=O)CC[C@@]32C)[C@@H]2CC[C@H]([C@H](C)CCCNCCNc3ccnc4cc(Cl)ccc34)[C@@]12C [Compound 38] : ____ 131/301/222

// returns reported SI HepG2/TM91C235 for input CC(=O)O[C@H]1C[C@H]2[C@@H]([C@H](OC(C)=O)C[C@@H]3C[C@H](NS(C)(=O)=O)CC[C@@]32C)[C@@H]2CC[C@H]([C@H](C)CCCNCCCNc3ccnc4cc(Cl)ccc34)[C@@]12C [Compound 39] 130/119/147

GET /values?readout=SI HepG2/TM91C235&item= CC(=O)O[C@H]1C[C@H]2[C@@H]([C@H](OC(C)=O)C[C@@H]3C[C@H](NC(=O)OC(C)(C)C)CC[C@@]32C)[C@@H]2CC[C@H]([C@H](C)CCCNCCNc3ccnc4cc(Cl)ccc34)[C@@]12C [Compound 40] 1743/531/464

For the compound shown here, CC(=O)O[C@H]1C[C@H]2[C@@H]([C@H](OC(C)=O)C[C@@H]3C[C@H](N(C)C)CC[C@@]32C)[C@@H]2CC[C@H]([C@H](C)CCCN(C)CCNc3ccnc4cc(Cl)ccc34)[C@@]12C [Compound 56] , give the reported SI HepG2/TM91C235. 6824/3920/3176

What value of SI HepG2/TM91C235 has been reported for the following compound? CC(=O)O[C@@H]1CC[C@@]2(C)[C@@H](C1)C[C@@H](OC(C)=O)[C@@H]1[C@@H]2C[C@H](OC(C)=O)[C@]2(C)[C@@H]([C@H](C)CCCN(C)CCCNc3ccnc4cc(Cl)ccc34)CC[C@@H]12 [Compound 21] 134/229/71
